Data credit: PubChem BioAssay AID1159580

# ASSAY_REMARKS: chemical genetic growth profiling, strain panel (AID 1159580);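 note: tested at 20 µM; growth read once vehicle control cultures reached saturation at 30 °C; lower values mean less growth of the strain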
# DETAILS: S. cerevisiae deletion strains, growth OD, locus YER110C, active compounds read low
Among all 5,500 compounds or so, about 2,000 (36%) were called active. Inconclusive results (about 18%) are left out. This is one part of the list.
Exam item: assign YES to entries whose normalized growth is below 1 and NO to entries at or above 1. Note that a value of exactly 1 receives NO.

Before answering, review these 3 worked examples.
1. COc1cc2c(cc1OC)[C@@H]1C(=O)c3ccc4c(c3O[C@@H]1CO2)C=CC(C)(C)O4
YES
2. CC1=C(CC(=O)O)c2cc(F)ccc2/C1=C\c1ccc(S(C)=O)cc1 (configuration not stated)
NO
3. CCN(CC)CCCC(C)Nc1c2ccc(Cl)cc2nc2ccc(OC)cc12 (configuration not stated)
YES

Exam item: Quick check: normalized growth of "c1ccc(N=Nc2ccccc2)cc1" under 1?
Marked response: NO

Exam item: What about this molecule? "CC(=O)N[C@@H](CC(C)C)C(=O)O"
Marked response: YES

Exam item: What about this molecule? CC(C(=O)O)c1cccc(Oc2ccccc2)c1 (configuration not stated)
Marked response: YES

Exam item: What about this molecule? CC(=O)OCC(=O)[C@H]1CCC2C3CCC4=CC(=O)CC[C@]4(C)C3CC[C@@]21C (some centres not stated)
Marked response: YES

Exam item: What about this molecule? CC1=C(C(C)O)C2=NC1C=c1[nH]c(c(C)c1C(C)O)=Cc1[nH]c(c(CCC(=O)O)c1C)C=c1[nH]c(c(C)c1CCC(=O)O)=C2 (configuration not stated)
Marked response: NO

Exam item: What about this molecule? "COc1cc2c(cc1OC)[C@@H]1C(=O)c3ccc(O)c(CC=C(C)C)c3O[C@@H]1CO2"
Marked response: YES

Exam item: What about this molecule? C=C1C([C@]2(C)C(CC(=O)OC)[C@@](C)(COC(C)=O)OC(=O)C[C@@H]2OC(C)=O)[C@@H](OC=O)[C@H](OC(=O)C(OC(C)=O)C(C)CC)[C@@]2(C)[C@H](c3ccoc3)CC(=O)C12O (some centres not stated)
Marked response: NO

Exam item: What about this molecule? "COP(=O)(OC)OC=C(Cl)Cl"
Marked response: YES
